# assayed-target: (MOUSE)NAT2_R127L (Mus musculus, UniProt P50295, R127L)
# Construct: made in house
# Sequence (P50295 whole entry R127L): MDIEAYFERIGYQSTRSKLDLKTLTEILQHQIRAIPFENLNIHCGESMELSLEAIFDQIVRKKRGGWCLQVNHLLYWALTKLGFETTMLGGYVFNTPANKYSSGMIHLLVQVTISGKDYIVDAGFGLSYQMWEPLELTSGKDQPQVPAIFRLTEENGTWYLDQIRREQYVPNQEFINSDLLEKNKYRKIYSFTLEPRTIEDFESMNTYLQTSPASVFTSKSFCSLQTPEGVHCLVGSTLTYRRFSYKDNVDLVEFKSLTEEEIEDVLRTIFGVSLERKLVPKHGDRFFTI
# measurement-description: Substrate specific N-acetylation profile
# Type: biochemical
# test-context: (MOUSE)NAT2 R127L; substrate 500 μM; relative to substrate with highest specific activity (100%); mean of 3 ± SD

| sample-smiles | % specific activity values [%] |
| --- | --- |
| CCCCCCOc1ccc(N)cc1 | 80 |
| COc1ccc(N)cc1 | 77 |
| NNC(=O)c1ccncc1 | 76 |

---

A collection of molecules and their measured % specific activity values
# assayed-target: (MOUSE)NAT1*1 (Mus musculus, UniProt P50294)
# Construct: The open reading frame of (MOUSE)Nat1*1 [32] was subcloned; hexa-His (N, cleaved yes); made in house; host or cells: Escherichia coli BL21(DE3)CodonPlus-RIL
# measurement-description: Substrate specific N-acetylation profile
# Assay type: biochemical
# test-context: substrate 500 μM, relative to substrate with highest specific activity (100%), mean of 3 ± SD

| molecule | % specific activity values / % |
| --- | --- |
| Nc1ccc(C(=O)O)cc1 | 48 |
| Nc1ccc(Oc2ccccc2)cc1 | 6 |
| Nc1ccc(Cl)cc1 | 18 |
| NNc1nncc2ccccc12 [HDZ, hydralazine] | 68 |
| COc1ccc(N)cc1 | 48 |
| Nc1ccc(I)cc1 | 28 |
